Numbers sourced from ChEMBL document CHEMBL1128753.

Test system: T-cell
Assay: Tested for inhibition of T cell proliferation in the co-mitogen stimulated proliferation assay
Type: functional, cell-based
Details: Homo sapiens
readout: IC50 (nM)
# value in nM; strip the unit string

For orientation, consider the following solved cases.
>>> experimentalresult("CO[C@H]1C[C@@H]2CC[C@@H](C)[C@@](O)(O2)C(=O)C(=O)N2CCCC[C@H]2C(=O)O[C@H]([C@H](C)C[C@@H]2CC[C@@H](OC(=O)CCCCCNc3ccc(N=[N+]=[N-])cc3[N+](=O)[O-])[C@H](OC)C2)CC(=O)[C@H](C)/C=C(\\C)[C@@H](O)[C@@H](OC)C(=O)[C@H](C)C[C@H](C)/C=C/C=C/C=C/1C")
2.5
>>> experimentalresult("CO[C@H]1C[C@@H]2CC[C@@H](C)[C@@](O)(O2)C(=O)C(=O)N2CCCC[C@H]2C(=O)O[C@H]([C@H](C)C[C@@H]2CC[C@@H](O)[C@H](OC)C2)CC(=O)[C@H](C)/C=C(\\C)[C@@H](OC(=O)Cc2ccc(N=[N+]=[N-])cc2)[C@@H](OC)C(=O)[C@H](C)C[C@H](C)/C=C/C=C/C=C/1C")
5.8

The recorded IC50 for entry `CO[C@H]1C[C@@H]2CC[C@@H](C)[C@@](O)(O2)C(=O)C(=O)N2CCCC[C@H]2C(=O)O[C@H]([C@H](C)C[C@@H]2CC[C@@H](O)[C@H](OC)C2)CC(=O)[C@H](C)/C=C(\C)[C@@H](OC(=O)CCCCCCCNc2ccc(N=[N+]=[N-])cc2[N+](=O)[O-])[C@@H](OC)C(=O)[C@H](C)C[C@H](C)/C=C/C=C/C=C/1C` equals 10.5
